- testDescription: self-splicing fitness, log relative to wild type (ln ratio); higher = more splicing; Tetrahymena group I intron in knt gene, E. coli kanamycin selection, DiMSum; sequences stand for … in CUCUCU…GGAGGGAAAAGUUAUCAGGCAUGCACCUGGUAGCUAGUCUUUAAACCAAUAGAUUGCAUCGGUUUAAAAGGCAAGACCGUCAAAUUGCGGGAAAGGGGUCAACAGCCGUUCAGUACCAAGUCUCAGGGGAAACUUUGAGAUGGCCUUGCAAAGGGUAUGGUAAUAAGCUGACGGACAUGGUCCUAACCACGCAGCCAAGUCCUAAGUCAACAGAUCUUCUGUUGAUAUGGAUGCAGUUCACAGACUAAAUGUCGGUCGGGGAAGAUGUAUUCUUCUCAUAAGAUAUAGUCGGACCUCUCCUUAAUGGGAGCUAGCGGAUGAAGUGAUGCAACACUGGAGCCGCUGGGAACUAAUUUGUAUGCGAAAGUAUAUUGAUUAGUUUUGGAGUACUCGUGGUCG;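 further: selection with 25 µg/mL kanamycin versus none on LB agar overnight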
- runParameters: 30 °C
measure: self-splicing fitness (ln)
Form: value (number only, do not type unit).

In: Looking for the measured self-splicing fitness (ln) of "CACGAGCAAUAUUACGUCUC" , can you help?
Out: -2.49

In: Looking for the measured self-splicing fitness (ln) of "UUACAGCAAUAUUACGAUCA" , can you help?
Out: -0.398

In: Looking for the measured self-splicing fitness (ln) of "GGUUAGCAAUAUUACGCCUA" , can you help?
Out: 0.0795

In: Looking for the measured self-splicing fitness (ln) of "UACAAGCAAUAUUACGAAAG" , can you help?
Out: -2.61

In: Looking for the measured self-splicing fitness (ln) of "AGCCAGCAAUAUUACGGCUG" , can you help?
Out: -2.52

In: Looking for the measured self-splicing fitness (ln) of "UUUGAGCAAUAUUACGCUAG" , can you help?
Out: -2.68

In: Looking for the measured self-splicing fitness (ln) of "GCUUAGCAAUAUUACGUUGC" , can you help?
Out: -2.46

In: Looking for the measured self-splicing fitness (ln) of "UAGUAGCAAUAUUACGCUAC" , can you help?
Out: -2.41

In: Looking for the measured self-splicing fitness (ln) of "ACCUAGCAAUAUUACGAGUG" , can you help?
Out: -1.43

In: Looking for the measured self-splicing fitness (ln) of "GACGAGCAAUAUUACGGUUG" , can you help?
Out: -2.82

In: Looking for the measured self-splicing fitness (ln) of "AUCAAGCAAUAUUACGGAGG" , can you help?
Out: -2.43

In: Looking for the measured self-splicing fitness (ln) of "CAGAAGCAAUAUUACGUGGG" , can you help?
Out: -3.34

In: Looking for the measured self-splicing fitness (ln) of "UUGUAGCAAUAUUACGCGUA" , can you help?
Out: -1.31

In: Looking for the measured self-splicing fitness (ln) of "AACUAGCAAUAUUACGUCCU" , can you help?
Out: -0.111

In: Looking for the measured self-splicing fitness (ln) of "UCCGAGCAAUAUUACGGUAG" , can you help?
Out: -3.6

In: Looking for the measured self-splicing fitness (ln) of "UGUAAGCAAUAUUACGCCUA" , can you help?
Out: -0.337

In: Looking for the measured self-splicing fitness (ln) of "UUAUAGCAAUAUUACGGAAC" , can you help?
Out: -3.09

In: Looking for the measured self-splicing fitness (ln) of "UGGGAGCAAUAUUACGAUAG" , can you help?
Out: -3.25

In: Looking for the measured self-splicing fitness (ln) of "GUUCAGCAAUAUUACGGUGA" , can you help?
Out: -2.66

In: Looking for the measured self-splicing fitness (ln) of "GAAGAGCAAUAUUACGUGAU" , can you help?
Out: -3.4

In: Looking for the measured self-splicing fitness (ln) of "AUUCAGCAAUAUUACGUGUU" , can you help?
Out: -2.68

In: Looking for the measured self-splicing fitness (ln) of "UGGCAGCAAUAUUACGAUCU" , can you help?
Out: -0.344

In: Looking for the measured self-splicing fitness (ln) of "AUCUAGCAAUAUUACGAAAU" , can you help?
Out: -1.81

In: Looking for the measured self-splicing fitness (ln) of "CACCAGCAAUAUUACGGGGC" , can you help?
Out: -4.45

In: Looking for the measured self-splicing fitness (ln) of "GCAAAGCAAUAUUACGGUAU" , can you help?
Out: -1.32

In: Looking for the measured self-splicing fitness (ln) of "UUGCAGCAAUAUUACGGUAU" , can you help?
Out: -1.86

In: Looking for the measured self-splicing fitness (ln) of "AAGUAGCAAUAUUACGUGGA" , can you help?
Out: -3.83

In: Looking for the measured self-splicing fitness (ln) of "UGGCAGCAAUAUUACGAACG" , can you help?
Out: -0.0867

In: Looking for the measured self-splicing fitness (ln) of "CGGUAGCAAUAUUACGGGCU" , can you help?
Out: -3.22

In: Looking for the measured self-splicing fitness (ln) of "AGCAAGCAAUAUUACGGGUG" , can you help?
Out: -1.36

In: Looking for the measured self-splicing fitness (ln) of "CAGUAGCAAUAUUACGUUUC" , can you help?
Out: -3.64

In: Looking for the measured self-splicing fitness (ln) of "GAUCAGCAAUAUUACGUAGC" , can you help?
Out: -0.999

In: Looking for the measured self-splicing fitness (ln) of "GCCGAGCAAUAUUACGGAUC" , can you help?
Out: -0.703

In: Looking for the measured self-splicing fitness (ln) of "AGGAAGCAAUAUUACGCCUG" , can you help?
Out: -1.15

In: Looking for the measured self-splicing fitness (ln) of "CAAUAGCAAUAUUACGGACA" , can you help?
Out: -2.44

In: Looking for the measured self-splicing fitness (ln) of "UAGGAGCAAUAUUACGUUUC" , can you help?
Out: -2.55

In: Looking for the measured self-splicing fitness (ln) of "GCCAAGCAAUAUUACGAUCU" , can you help?
Out: -1.94

In: Looking for the measured self-splicing fitness (ln) of "CUUCAGCAAUAUUACGGGCG" , can you help?
Out: -0.584

In: Looking for the measured self-splicing fitness (ln) of "ACCGAGCAAUAUUACGCGGU" , can you help?
Out: -3.02

In: Looking for the measured self-splicing fitness (ln) of "UGGGAGCAAUAUUACGUACG" , can you help?
Out: -2.41

In: Looking for the measured self-splicing fitness (ln) of "CCUAAGCAAUAUUACGGAUG" , can you help?
Out: -2.08

In: Looking for the measured self-splicing fitness (ln) of "CCAGAGCAAUAUUACGUAAA" , can you help?
Out: -2.75

In: Looking for the measured self-splicing fitness (ln) of "ACCCAGCAAUAUUACGAAUU" , can you help?
Out: -1.63

In: Looking for the measured self-splicing fitness (ln) of "GCGAAGCAAUAUUACGCGCG" , can you help?
Out: -2.34

In: Looking for the measured self-splicing fitness (ln) of "AGGCAGCAAUAUUACGCGUU" , can you help?
Out: -2.29

In: Looking for the measured self-splicing fitness (ln) of "GGGGAGCAAUAUUACGCACG" , can you help?
Out: -1.89

In: Looking for the measured self-splicing fitness (ln) of "CUUAAGCAAUAUUACGAUCG" , can you help?
Out: -0.53

In: Looking for the measured self-splicing fitness (ln) of "UGUAAGCAAUAUUACGUGCA" , can you help?
Out: -0.738

In: Looking for the measured self-splicing fitness (ln) of "UUAAAGCAAUAUUACGUGUG" , can you help?
Out: -0.972

In: Looking for the measured self-splicing fitness (ln) of "AACGAGCAAUAUUACGUUGG" , can you help?
Out: -3.75

In: Looking for the measured self-splicing fitness (ln) of "UGUCAGCAAUAUUACGGAUU" , can you help?
Out: -1.57

In: Looking for the measured self-splicing fitness (ln) of "CAUGAGCAAUAUUACGGUAC" , can you help?
Out: -2.67

In: Looking for the measured self-splicing fitness (ln) of "UAAAAGCAAUAUUACGCAAC" , can you help?
Out: -4.54

In: Looking for the measured self-splicing fitness (ln) of "AAUCAGCAAUAUUACGUGGC" , can you help?
Out: -3.57

In: Looking for the measured self-splicing fitness (ln) of "GCUUAGCAAUAUUACGCACC" , can you help?
Out: -0.796

In: Looking for the measured self-splicing fitness (ln) of "AAGCAGCAAUAUUACGCGAA" , can you help?
Out: -1.77

In: Looking for the measured self-splicing fitness (ln) of "UUUAAGCAAUAUUACGUUUG" , can you help?
Out: -2.96

In: Looking for the measured self-splicing fitness (ln) of "GUUUAGCAAUAUUACGAUCA" , can you help?
Out: -1.38

In: Looking for the measured self-splicing fitness (ln) of "AAUCAGCAAUAUUACGUACU" , can you help?
Out: 0.336

In: Looking for the measured self-splicing fitness (ln) of "GUCUAGCAAUAUUACGGUGG" , can you help?
Out: -2.87

In: Looking for the measured self-splicing fitness (ln) of "GUUCAGCAAUAUUACGGACG" , can you help?
Out: -2.15

In: Looking for the measured self-splicing fitness (ln) of "AUUAAGCAAUAUUACGGCCG" , can you help?
Out: -0.768

In: Looking for the measured self-splicing fitness (ln) of "GUAAAGCAAUAUUACGUAGC" , can you help?
Out: -2.6

In: Looking for the measured self-splicing fitness (ln) of "UGGCAGCAAUAUUACGGUGU" , can you help?
Out: -3.4

In: Looking for the measured self-splicing fitness (ln) of "CGAGAGCAAUAUUACGGUGA" , can you help?
Out: -3.9

In: Looking for the measured self-splicing fitness (ln) of "UGUCAGCAAUAUUACGGGAG" , can you help?
Out: -2.78

In: Looking for the measured self-splicing fitness (ln) of "CUUUAGCAAUAUUACGGGUA" , can you help?
Out: -3.97

Measured values drawn from the supplement of paper PMC7877785 for this set.
